Would you kindly list Papp B→A at 120 min, 5 μM for each of these compounds?
Tested on: MDR1
Experiment: in vitro
Details: dog, MDCK-MDR1, pH 7.4, MDCK-MDR1: Papp B-A (10^−6, cm/s)
Quick note: give the figure in ×10⁻⁶ cm/s, leave out the unit.

Incoming: State its Papp B→A at 120 min, 5 μM on MDR1: CN(c1cnc(-c2cc(F)c(-c3ccn(CF)c(=O)c3)cc2O)cn1)[C@@H]1C[C@H]2CC[C@H](N2)[C@@H]1F [Compound 32E1]
Outgoing: 58.7

Incoming: Form field - read-out: Papp B→A at 120 min, 5 μM; system: MDR1; submitted item: CN(c1cnc(-c2ccc(C3=CCOC3)cc2O)cn1)[C@H]1C[C@@H]2CCC(N2)[C@H]1F (single isomer, unassigned) [Compound 84E2]
Outgoing: 14.9

Incoming: Please tell me: Papp B→A at 120 min, 5 μM of COc1cc(-c2cc(O)c(-c3cnc(N(C)[C@@H]4CC5CC[C@H](N5)[C@@H]4F)cn3)cc2F)ccn1 (single isomer, unassigned) [Compound 30E1] , system MDR1?
Outgoing: 5.24

Incoming: Quick check: Papp B→A at 120 min, 5 μM on MDR1, item CN(c1cnc(-c2ccc(-c3cc[nH]c(=O)c3)cc2O)cn1)[C@@H]1CC2CC[C@H](N2)[C@@H]1F (single isomer, unassigned) [Compound 76E1] ?
Outgoing: 30.1

Incoming: Enter reported Papp B→A at 120 min, 5 μM observed with MDR1 for Oc1cc(-n2ccnn2)c(F)cc1-c1cnc(N(C2CC2)[C@H]2C[C@@H]3CCC(N3)[C@H]2F)cn1 (single isomer, unassigned) [Compound 11E2]
Outgoing: 41.1

Incoming: Form field: Papp B→A at 120 min, 5 μM recorded for CN(c1cnc(-c2cc(F)c(-n3ccnn3)cc2O)cn1)[C@H]1C[C@@H]2CCC(N2)[C@H]1F (single isomer, unassigned) [Compound 21E2] with MDR1 (enter value)
Outgoing: 48

Incoming: Request: Papp B→A at 120 min, 5 μM, test system MDR1, entry CN(c1cnc(-c2cc(F)c(-c3ccn(C)c(=O)c3)cc2O)cn1)[C@H]1C[C@@H]2CCCC(N2)[C@H]1F (single isomer, unassigned) [Compound 12E2]
Outgoing: 57.4

Incoming: Recorded Papp B→A at 120 min, 5 μM for COc1cc(-c2cc(O)c(-c3cnc(N(C)[C@H]4C[C@@H]5CCC(N5)[C@H]4F)cn3)cc2F)cc(F)n1 (single isomer, unassigned) [Compound 31E2] with MDR1, please?
Outgoing: 0.5

Incoming: API: value(readout= Papp B→A at 120 min, 5 μM, system= MDR1, query= CN(c1cnc(-c2cc(F)c(-c3cn[nH]c3)cc2O)cn1)[C@@H]1CC2CC[C@H](N2)[C@@H]1F (single isomer, unassigned) [Compound 40E1] )
Outgoing: 39.2

Incoming: Please provide the recorded Papp B→A at 120 min, 5 μM for CNC(=O)/C=C/c1cc(O)c(-c2cnc(N(C)[C@H]3C[C@@H]4CCC(N4)[C@H]3F)cn2)cc1F (single isomer, unassigned) [Compound 60E2] , tested on MDR1.
Outgoing: 60.1

Incoming: Requested read-out Papp B→A at 120 min, 5 μM, target or system MDR1, entry CN(c1cnc(-c2ccc(-c3ccn(C)c(=O)c3)cc2O)cn1)[C@@H]1CC2CC[C@H](N2)[C@@H]1F (single isomer, unassigned) [Compound 45E1]
Outgoing: 47.6

* * *

I'd appreciate it if you could supply Papp B→A at 120 min, 5 μM values for the items below.
System: MDR1
Test: in vitro
Details: dog, MDCK-MDR1, pH 7.4, MDCK-MDR1: Papp B-A (10^−6, cm/s)
The figure you give is taken to be in ×10⁻⁶ cm/s; do not add the unit.

Incoming: Fill in: Papp B→A at 120 min, 5 μM of CN(c1cnc(-c2cc(F)c(-c3cn[nH]c3)cc2O)cn1)[C@H]1C[C@]2(C)CC[C@@](C)(N2)[C@H]1F is ___
Outgoing: 20

Incoming: Looking for the measured Papp B→A at 120 min, 5 μM of CN(c1cnc(-c2ccc(-c3ccn(C)c(=O)c3)cc2O)cn1)[C@H]1C[C@@H]2CCC(N2)[C@H]1F (single isomer, unassigned) , can you help?
Outgoing: 65.6

Incoming: Endpoint output: Papp B→A at 120 min, 5 μM of CN(c1cnc(-c2ccc(-c3cnn(C)c3)cc2O)cn1)[C@H]1C[C@@H]2COCC(N2)[C@H]1F (single isomer, unassigned) . Value?
Outgoing: 49.1

Incoming: Dear colleague, I am looking for the recorded Papp B→A at 120 min, 5 μM of the following compound: Oc1cc(-c2cn[nH]c2)ccc1-c1cnc(O[C@@H]2C[C@H]3CCC(N3)[C@@H]2F)cn1 (single isomer, unassigned)
Outgoing: 40.1

Incoming: Name the reported Papp B→A at 120 min, 5 μM value associated with the compound CNC(=O)/C=C/c1cc(O)c(-c2cnc(N(C3CC3)[C@@H]3C[C@@]4(C)CC[C@](C)(N4)[C@@H]3F)cn2)cc1F
Outgoing: 45.3

Incoming: # query: Papp B→A at 120 min, 5 μM of entry COc1cc(-c2ccc(-c3cnc(N(C)[C@H]4C[C@]5(C)CC[C@@](C)(N5)[C@H]4F)cn3)c(O)c2)cnn1
Outgoing: 22.9

* * *

Test system: MDR1
Assay: in vitro
Conditions: dog, MDCK-MDR1, pH 7.4, MDCK-MDR1: Papp A-B (10^−6, cm/s)
Sorting guide: entries reporting Papp A→B at 120 min, 5 μM beneath 2 ×10⁻⁶ cm/s go in the yes pile, the rest go in the no pile.

Incoming: Quick check: Papp A→B at 120 min, 5 μM of COc1cc(-c2ccc(-c3cnc(N(C4CC4)[C@@H]4CC5CC[C@H](N5)[C@@H]4F)cn3)c(O)c2)ccn1 (single isomer, unassigned) [Compound 51E1] under 2 ×10⁻⁶ cm/s?
Outgoing: yes

Incoming: In plain terms, does Cn1cc(-c2ccc(-c3cnc(N(C4CC4)[C@H]4C[C@]5(C)CC[C@@](C)(N5)[C@H]4F)cn3)c(O)c2)cn1 [Compound 75E2] come in under 2 ×10⁻⁶ cm/s for Papp A→B at 120 min, 5 μM?
Outgoing: no

Incoming: Here's an entry: COc1cc(-c2ccc(-c3cnc(N(C4CC4)[C@H]4C[C@@H]5CCC(N5)[C@H]4F)cn3)c(O)c2)ncn1 (single isomer, unassigned) [Compound 56E2] . Is its Papp A→B at 120 min, 5 μM below 2 ×10⁻⁶ cm/s?
Outgoing: no

Incoming: State whether 2 ×10⁻⁶ cm/s exceeds Papp A→B at 120 min, 5 μM recorded for CN(c1cnc(-c2cc(F)c(-c3cnn(CF)c3)cc2O)cn1)[C@H]1C[C@@H]2CCC(N2)[C@H]1F (single isomer, unassigned) [Compound 29E2] .
Outgoing: no

Incoming: Determine if Oc1cc(-c2cn[nH]c2)c(F)cc1-c1cnc(N(C2CC2)[C@H]2C[C@@H]3CCC(N3)[C@H]2F)cn1 (single isomer, unassigned) [Compound 41E2] shows Papp A→B at 120 min, 5 μM strictly lower than 2 ×10⁻⁶ cm/s.
Outgoing: no

Incoming: Does CN(C)C(=O)c1cc(O)c(-c2cnc(N(C)[C@@H]3CC4CC[C@H](N4)[C@@H]3F)cn2)cc1F (single isomer, unassigned) [Compound 14E1] have Papp A→B at 120 min, 5 μM strictly under 2 ×10⁻⁶ cm/s?
Outgoing: yes

Incoming: Strictly below 2 ×10⁻⁶ cm/s in Papp A→B at 120 min, 5 μM? O=c1cc(-c2ccc(-c3cnc(N(C4CC4)[C@H]4C[C@@H]5CCC(N5)[C@H]4F)cn3)c(O)c2)ccn1CF (single isomer, unassigned) [Compound 54E2]
Outgoing: yes

Incoming: # check: Papp A→B at 120 min, 5 μM < 2 ×10⁻⁶ cm/s for CN(c1cnc(-c2ccc(-c3nnco3)cc2O)cn1)[C@@H]1CC2CC[C@H](N2)[C@@H]1F (single isomer, unassigned) [Compound 80E1]
Outgoing: no

Incoming: Item Cn1cnc(-c2ccc(-c3cnc(N(C4CC4)[C@@H]4CC5CC[C@H](N5)[C@@H]4F)cn3)c(O)c2)cc1=O (single isomer, unassigned) [Compound 55E1] : Papp A→B at 120 min, 5 μM beneath 2 ×10⁻⁶ cm/s, strictly?
Outgoing: no

Incoming: In plain terms, does COc1cc(-c2ccc(-c3cnc(N(C)[C@H]4C[C@]5(C)CCC[C@@](C)(N5)[C@H]4F)cn3)c(O)c2)cnn1 [Compound 24E2] come in under 2 ×10⁻⁶ cm/s for Papp A→B at 120 min, 5 μM?
Outgoing: no

Incoming: Does CN(c1cnc(-c2cc(F)c(-c3ccn(CF)c(=O)c3)cc2O)cn1)[C@@H]1C[C@H]2CC[C@H](N2)[C@@H]1F [Compound 32E1] have Papp A→B at 120 min, 5 μM strictly under 2 ×10⁻⁶ cm/s?
Outgoing: no

Incoming: Please let me know if Cn1cnc(-c2cc(O)c(-c3cnc(N(C4CC4)[C@@H]4CC5CC[C@H](N5)[C@@H]4F)cn3)cc2F)cc1=O (single isomer, unassigned) [Compound 50E1] shows Papp A→B at 120 min, 5 μM below 2 ×10⁻⁶ cm/s.
Outgoing: yes

Incoming: Is Papp A→B at 120 min, 5 μM of COc1cc(-c2ccc(-c3cnc(N(C)[C@H]4C[C@@H]5CCC(N5)[C@H]4F)cn3)c(O)c2)cc(F)n1 (single isomer, unassigned) [Compound 44E2] strictly below 2 ×10⁻⁶ cm/s?
Outgoing: no

Incoming: Check if Papp A→B at 120 min, 5 μM falls below 2 ×10⁻⁶ cm/s for CN(c1cnc(-c2ccc(C3=CCOC3)cc2O)cn1)[C@H]1C[C@@H]2CCC(N2)[C@H]1F (single isomer, unassigned) [Compound 84E2] .
Outgoing: no

Incoming: Please let me know if CN(C)C(=O)c1cc2cc(O)c(-c3cnc(N(C)[C@@H]4C[C@H]5CCC(N5)[C@@H]4F)cn3)cc2o1 (single isomer, unassigned) [Compound 7E1] shows Papp A→B at 120 min, 5 μM below 2 ×10⁻⁶ cm/s.
Outgoing: yes

Incoming: Identify whether the compound CN(c1cnc(-c2ccc(-c3ccn(C)c(=O)c3)cc2O)cn1)[C@H]1C[C@@H]2CCC(N2)[C@H]1F (single isomer, unassigned) [Compound 45E2] records Papp A→B at 120 min, 5 μM below 2 ×10⁻⁶ cm/s.
Outgoing: yes

Incoming: For this compound, is Papp A→B at 120 min, 5 μM lower than 2 ×10⁻⁶ cm/s? C[C@]12CC[C@](C)(N1)[C@H](F)[C@H](Oc1cnc(-c3ccc(-c4cn[nH]c4)cc3O)cn1)C2 [Compound 2E2]
Outgoing: no

Incoming: Given CN(c1cnc(-c2ccc(-c3ccn(CF)c(=O)c3)cc2O)cn1)[C@@H]1CC2CC[C@H](N2)[C@@H]1F (single isomer, unassigned) [Compound 46E1] , is recorded Papp A→B at 120 min, 5 μM strictly lower than 2 ×10⁻⁶ cm/s?
Outgoing: yes

Incoming: Please determine if CN(c1cnc(-c2cc(F)c(-c3cn[nH]c3)cc2O)cn1)[C@@H]1CC2N[C@H](C1)CC2(F)F (single isomer, unassigned) [Compound 65E2] is below 2 ×10⁻⁶ cm/s in terms of Papp A→B at 120 min, 5 μM.
Outgoing: no

Incoming: Check if Papp A→B at 120 min, 5 μM falls below 2 ×10⁻⁶ cm/s for COc1cc(-c2ccc(-c3cnc(N(C)[C@@H]4C[C@@]5(C)CC[C@](C)(N5)[C@@H]4F)cn3)c(O)c2)cnn1 [Compound 25E1] .
Outgoing: no

Incoming: Is 2 ×10⁻⁶ cm/s strictly greater than the compound's reported Papp A→B at 120 min, 5 μM? compound: CN(c1cnc(-c2cc(F)c(C3=CC(F)NC(F)=C3)cc2O)cn1)[C@@H]1C[C@@]2(C)CC[C@](C)(N2)[C@@H]1F (single isomer, unassigned) [Compound 63E1]
Outgoing: yes

Incoming: # check: Papp A→B at 120 min, 5 μM < 2 ×10⁻⁶ cm/s for CN(c1cnc(-c2ccc(-c3cn[nH]c3)cc2O)cn1)[C@H]1C[C@@H]2CCC(N2)[C@@H]1F (single isomer, unassigned) [Compound 27E2]
Outgoing: no
